Hey, just so you know, these numbers are from patent US11820747B2.

compounds and their reported pEC50
# tested system: PPARG/RXRA LBD heterodimer (Homo sapiens, UniProt P37231)
# Construct: His-TEV-Q203-Y477: Uniprot ID P37231-2; made in house; host or cells: E. coli
# Sequence (P37231 231-505): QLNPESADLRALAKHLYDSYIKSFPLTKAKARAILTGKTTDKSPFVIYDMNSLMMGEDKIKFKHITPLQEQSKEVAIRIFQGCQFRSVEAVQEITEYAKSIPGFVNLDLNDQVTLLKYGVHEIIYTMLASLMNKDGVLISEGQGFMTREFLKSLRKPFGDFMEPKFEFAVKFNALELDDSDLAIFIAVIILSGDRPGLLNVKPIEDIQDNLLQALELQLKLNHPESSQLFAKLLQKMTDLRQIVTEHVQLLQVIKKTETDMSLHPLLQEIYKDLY
# Sequence (P19793 228-462 partner): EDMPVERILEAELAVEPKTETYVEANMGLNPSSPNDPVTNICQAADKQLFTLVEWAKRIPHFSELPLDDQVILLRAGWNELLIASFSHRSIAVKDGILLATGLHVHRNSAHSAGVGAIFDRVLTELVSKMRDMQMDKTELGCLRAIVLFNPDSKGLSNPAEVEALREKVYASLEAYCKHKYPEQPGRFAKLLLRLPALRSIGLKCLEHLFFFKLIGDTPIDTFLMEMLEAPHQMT
# Sequence (O75376 2251-2273 partner): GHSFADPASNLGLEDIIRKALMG
# assay: PPARγ-NCOR1 recruitment assay (TR-FRET, biotinylated NCOR1 ID2 peptide)
# Format: binding
# measurement conditions: TR-FRET, 80 nM Rosiglitazone, 3 hours incubation; read-out: PPARG-NCOR recruitment assay EC50
# Protocol: PPARγ-NCOR1 Recruitment Assay: Compound potency (EC50) and maximal extent of NCOR1 recruitment to PPARG were assessed a TR-FRET binding assay measuring association of a biotinylated NCOR1 ID2 peptide (Biotin-[…]-amide) to PPARG/RXRA LBD heterodimer. […]
pEC50: −log10 of the molar value.

# annotated cases, reported pEC50 shown
compound	tested system	readout type	result
CC(C)CS(=O)(=O)c1ccc(C#N)cc1-c1cc(=O)c2c(F)cc(F)cc2[nH]1 [Example 13]	PPARG/RXRA LBD heterodimer (Homo sapiens, UniProt P37231)	pEC50	5.00 to 6.00
N#Cc1ccc([S+]([O-])CC(F)(F)F)c(-c2cc(=O)c3c(F)cc(F)cc3[nH]2)c1 (stereo not shown) [Example 5]	PPARG/RXRA LBD heterodimer (Homo sapiens, UniProt P37231)	pEC50	5.00 to 6.00

Fill in: pEC50 of CSc1ccc(C#N)cc1-c1cc(=O)c2c(F)cc(F)cc2[nH]1 [Example 6] is ___ < 5.00

Fill in: pEC50 of Cc1ccc(-c2c(F)cc3[nH]c(-c4cc(C#N)ccc4S(C)(=O)=O)cc(=O)c3c2F)cn1 [Example 15] is ___ 7.00 to 8.00

###

# tested system: PPARG/RXRA LBD heterodimer (Homo sapiens)
# Construct: His-TEV-Q203-Y477: Uniprot ID P37231-2; made in house; host or cells: E. coli
# assay: PPARγ-NCOR1 recruitment assay (TR-FRET, biotinylated NCOR1 ID2 peptide)
# Type: binding
# measurement conditions: TR-FRET, 80 nM Rosiglitazone, 3 hours incubation; read-out: PPARG-NCOR recruitment assay EC50
pEC50: −log10 of the molar value.
readout type: pEC50

# annotated cases, reported pEC50 shown
compound	pEC50
CN1CCN(c2c(F)cc3[nH]c(-c4cc(C#N)ccc4S(C)(=O)=O)cc(=O)c3c2F)CC1	6.00 to 7.00
N#Cc1ccc(S(=O)(=O)CC(F)(F)F)c(-c2cc(=O)c3c(F)cc(F)cc3[nH]2)c1	6.00 to 7.00
CCS(=O)(=O)c1ccc(C#N)cc1-c1cc(=O)c2c(F)cc(F)cc2[nH]1	6.00 to 7.00

Fill in: pEC50 of Cn1cc(-c2c(F)cc3[nH]c(-c4cc(C#N)ccc4S(C)(=O)=O)cc(=O)c3c2F)cn1 is ___ 7.00 to 8.00

Fill in: pEC50 of CC(C)S(=O)(=O)c1ccc(C#N)cc1-c1cc(=O)c2c(F)cc(F)cc2[nH]1 is ___ < 5.00

Fill in: pEC50 of CS(=O)(=O)c1ccc(C#N)cc1-c1cc(=O)c2c(F)cc(F)cc2[nH]1 is ___ 6.00 to 7.00

Fill in: pEC50 of C[S+]([O-])c1ccc(C#N)cc1-c1cc(=O)c2c(F)cc(F)cc2[nH]1 (centres unmarked) is ___ 5.00 to 6.00

Fill in: pEC50 of CS(=N)(=O)c1ccc(C#N)cc1-c1cc(=O)c2c(F)cc(F)cc2[nH]1 (centres unmarked) is ___ 6.00 to 7.00
